Data origin, for the record: the nanobody polyreactivity screen of Harvey et al. (2022)

# assay.protocol: yeast display, Sf9 membrane polyspecificity reagent, FACS + sequencing; frameworks hold sequencing errors
measured.metric: polyreactivity (PSR sort gate)

Examples with answers:
{"columns": ["biopolymer.sequence", "result"],
 "data": [
  ["QVQLVESGGGLVQAGGSLRLSCAASGSIFGSYTMGWYRQAPGKERELVAAITTSGSSTYYADSVKGRFTISRDNAKNTVYLQMNSLKPEDTAVYYCSAEYYVTYPPYGWYDYWGHGTQVTVSS", "high polyreactivity"],
  ["QVQLVETGGRLGQAGGSLRLSCAASGRTFGYNAMGWYRQAPGKERELVAAISWSGTRTYYADSVKWRFTISRDNAKNTVYLQRNSLKPEDTAVYYCAARIAVYGGSYGWFDYWGQGTQVTVSS", "high polyreactivity"],
  ["QVQLVESGGGLVQAGGSLRLSCAASGSTFVYYAMGWYRQAPGKERELVAAISWSSDSTYYADSEKGRFTISRDNAKNTVYLQMNSLKPEDTAVYYCARSDGRQSYWTDFSTDYYFWGQGTQVTVSS", "low polyreactivity"],
  ["QVQLVESGGGLVQAGGSLRLSCAASGSIFYPYAMGWYRQAPGKERELVAAITSSTGSTYYADSVKGRFTISRDHAKNTVYLQMNSLKPEDTAVYYCAAAGYWSYFMMDYWGQGTQVTVSS", "low polyreactivity"],
  ["QVQLVESGGGLVQAGGSLRLICAASGSTSLVYAMGWYRQAPGKERDLVAAISWSGGSTYYADSVKGRFTISRDNAKNTVYLQMNSLKPEDTAVYYCAAEYYGYWEYDYWGQGTQVTVSS", "high polyreactivity"]
]}

Specify measured polyreactivity (PSR sort gate) for QVQLVESGGGLVQAGGSLRLSCAASGRIFDIYALGWYRQAPGKERELVAAITWRGGSTYYADSVKGRFTISRDNAKNTVYLQMNSLKPEDTAVYYCAVDFITPRGSYYWGQGTQVTVSS .
low polyreactivity

Specify measured polyreactivity (PSR sort gate) for QDQLVESGGGLVQAGGSLRLSCAASGRTFIRNSMGWNRQAPGKERELVAAISGTGGSTYYADSVKGRFTISRDYAKNTVYLQMNSLKPEDTAVYYCAADRPAPGYDFWGQVTQVTVSS .
low polyreactivity

Specify measured polyreactivity (PSR sort gate) for QVQLVESGGGLVQAGGSLRLSCAASGSTFNINGMGWYRQAPGKERELVASITGSGGNTYYADSVKGRFTISRDNAKNTVYLQMNSLKPEDTAVYYCNTTLYTGQPGRTFDYWGQGTQVTVSS .
low polyreactivity

Specify measured polyreactivity (PSR sort gate) for QVQLVESGGGLVQAGGSLRLSCDASGLIFGPYTMGWYRQAPGKERELVAAISYGGVSTYYADSVKGRFTISRDNAKNTVYLQMNSLNPEDTAVYYCARGDSTRVIRPSAREYDYWGQGTQVTVSS .
low polyreactivity

Specify measured polyreactivity (PSR sort gate) for QVQLVESGGGLVQAGGSLRLSCAASGFTFDWNAMGWYRQAPGKERELVAAISSSTGRTYYADSVKGRFTISRDNAKNTVYLQMNSLKPEDTAVYYCAASLGGRAGNYWGQGTQVTVSS .
high polyreactivity

Specify measured polyreactivity (PSR sort gate) for QVQLVESGGGLVQAGGSLRLSCAASGRTFTWNVMGWYRQAPGKERELVAAITTDDRTYADSEKGRFTISRDNAKNTVYLQMNSLKQEDTAVYYCATVVAWTSRPVGEDYWGQGTQVTVSS .
low polyreactivity

Specify measured polyreactivity (PSR sort gate) for QDQLVESGGGLVQAGGSLRLSCAASGRIFPGNAMGWYIHEPGKERELVADITSGGSTNYADSVNGRFTISRDNAKNSVYLQMNSLKPEDTAVYYCAVGQIYQTSDHRLQYVYWGQGTQVTVSS .
low polyreactivity

Specify measured polyreactivity (PSR sort gate) for QVQLVESGGGLVQAGGSLRLSCAASGIIFVWYTMGWYRQAPGKERELVAAIDSIGDGTYYADSVKGRFTISRDNAKNTVYLQMNSLKPEDTAVYYCAVDDYYEMDYWGQGTQVTVSS .
low polyreactivity

Specify measured polyreactivity (PSR sort gate) for QVQLVESGGGLVQAGGSHRLICAASGFNFYIYAMGWYRQAPGKERELVAAISWNGGSTYYADSVKGRFTISRDIAKNTVYLQMNSLKPEDTAVYYCAARHYYFYYHGYVKYDYWGQGTQVTVSS .
high polyreactivity

Specify measured polyreactivity (PSR sort gate) for QVQLVESGGGLDQAGGSLRLSCAASGIIFVKYTMGWYRQAPGTERELVAAISRSGGSTYYADSVKGRFTISRDNAKNTVYLQMNSLKPEDTAVYYCNAVSRKVYPGPMDYWGQGTQVTVSS .
high polyreactivity

Specify measured polyreactivity (PSR sort gate) for QVQLVESGGGLVQAGGSLRLSCAASGSIFFGYAMGWYRQAPGKERELVAAISTRGGRSYYADSVKGRFTISRDNAKNTVYFQMNSLKPVDTAVYYCNAASLVQAYSHADERYDYWGQGTQVTVSS .
high polyreactivity

Specify measured polyreactivity (PSR sort gate) for QVQLVESGGGLVQAGGSLRLSCAASGSIFGINAMGWYRQAPGKERELVAAISWRGDSTSYADSVKGRFTISRDNAKNTVYLQMNSLKPEDTAVYYCAKGGTRFYVVGETYYYWGQGTQVTVSS .
low polyreactivity

Specify measured polyreactivity (PSR sort gate) for QVQLVESGGGLVQAGGSLRLSCAASGLTFSQNAMGWYRQAPGKERELVAAITRSGSTTHYADSVKGRFTISRDNAKNTVYLQMNSLKPEDTAVYYCAAVAFQTRYYYWGQGTQVTVSS .
high polyreactivity

Specify measured polyreactivity (PSR sort gate) for QVQLVESGGGLVQAGGSLRLSCAASGFIFSSYAMGWYRQAPGKERELVAAITSGGSTNYADSVKGRFTISRDNAKNTVYLQMNSLKPEDTAVYYCAADGVASLFGDPPTEFDYWGQGTQVTVSS .
low polyreactivity

Specify measured polyreactivity (PSR sort gate) for QVQLVESGGGLVQAGGSLRLSCAASGRIFVRYVMGWYRLAPGKERELVAAINWNGGSTYYADSVKGRFTISRDNAKNTVYLQMNSLKPEDTAVYYGAARGQFYNTRGGYWGQGTQVTVSS .
high polyreactivity

Specify measured polyreactivity (PSR sort gate) for QVQLVESGGGLVQAGGSLRLSCAATGRTFLYNAMGWYRQAPGKERELVAAISFDDGSTYYADSVKGRFTISRDNAKNTVYLQMNSLKPEDPAVYYCAAEYLYVGDSQAYNQYEYWGQGTQVTVSS .
low polyreactivity

----------
# assay.protocol: yeast display, Sf9 membrane polyspecificity reagent, FACS + sequencing; frameworks hold sequencing errors

{"columns": ["biopolymer.sequence", "polyreactivity (PSR sort gate)"],
 "data": [
  ["QVQLVESGGGLVQAGGSLRLSCAASGFIFGRYTMGWYRQATGKERELVAAISGSDVTTYYADSVKGRFTISRDNAKNTVYLQMNSLKPEDTAVYYCAADSPWAYYEYDYWGQGTHVTVSS", "low polyreactivity"],
  ["QVQLVESGGGLVQAGGSLRLSCAASGSTFYYYAMGWYRQAPGKERELVASINKIVGITDYADSVKGRFTISRDNAKNTGYLQRNSLTPEDTAVYYCAAHGRINPDVPRTDFFASEEDYWGQGTQVTVSS", "low polyreactivity"]
]}

----------
# assay.protocol: yeast display, Sf9 membrane polyspecificity reagent, FACS + sequencing; frameworks hold sequencing errors

{"columns": ["biopolymer.sequence", "polyreactivity (PSR sort gate)"],
 "data": [
  ["QVQLVESGGGLVQAGGSLRLSCAASGSTFYIYAMGWYRQSPGKERELVAVITRGGSTYYADSVKGRFTISRDNAKNTVYLQMNSLKPEDTAVYYCAARYWNGTRDTYGSWGQGTQVTVSS", "high polyreactivity"],
  ["QVQLVESGGGLVQAGGSHRLSCAASGFIFRRNAMGWYRQAPGKERELVAAITKSGGSTYYADSVKGRFTISRDNAKNTVYLQMNSLKPEDTAVYYCAAKRQTGQSYYWGQGTQVTVSS", "high polyreactivity"]
]}

----------
# assay.protocol: yeast display, Sf9 membrane polyspecificity reagent, FACS + sequencing; frameworks hold sequencing errors
measured.metric: polyreactivity (PSR sort gate)

{"columns": ["biopolymer.sequence", "result"],
 "data": [
  ["QDQLVESGGGLVQAGGSLRLSCAASGFTLSINAMGWYRQAPGKERELVAGISWSGGSTYYADSVKGRFTISRDNAKNTVYLQMNSLKPEDTAVYYCNADIYPDRYGSTNYDFNYWGQGTQVTVSS", "low polyreactivity"],
  ["QVQLVESGGGLVQAGGSLRLSCAASGSTFRGYDMGWYRQAPGKERELVAAITTSGGTTYYADSVKGRFTISRDNAKNTVYLQMNSLKPEDTAVYYCAARYPRAGVPRRPTAYVRYGYWGQGTQVTVSS", "high polyreactivity"],
  ["QVQLVESGGGLVQAGGSLRLRCAASGSTFYGYVMGWYRQAPGQERELVAAITNRAGSTYYADSVKARFTISRDNAKNTVYVQMNSLKPEDTAVYYCNARRPAKSRYRHVYWGQVTQVTVSS", "high polyreactivity"],
  ["QVQLVESGGGIVQAGGSLRLSCAASGRTFSPYAMGWYRQAPGKERELVAGITWSGGSTYYSDSVKGRFTISRDYAKNPVYFQMNFLKPEDTAVYYCNAVGTYAYYCSFAYDYWGQGTQVNVSS", "high polyreactivity"]
]}

Specify measured polyreactivity (PSR sort gate) for QVQIEESGGGLVQAGGSLRLSCAASGSIFGKYAMGWYRQAPGKERELVAAITWSGGYTRYADSGKGRFTISRDKAKNTVYLLMNSLKPEDTAVYYCADPSTESKYYYWGQGTQVTVSS .
high polyreactivity

Specify measured polyreactivity (PSR sort gate) for QVQLVESGGGLVQAGGSLRLSCAASGYTFGWYAMGWYRQAPGKERELVAAITSDGSTYYADSVKGRFTISRDNEKNTVYLQMNSLIPVDTAVYYCAADATFDSDWGQGTQVTVSS .
low polyreactivity

Specify measured polyreactivity (PSR sort gate) for QVQLVESWGGLVHAGGSLRLSCAASGSIFDWYAMGWYRQAPGTERELVAAINEGGGSTYYADSVKGRFTISRDNAKNSVYLQMNSLKPEDTAVYYCAAGDYYLQDNYWGQGTQVTVSS .
low polyreactivity
